Tested on: ras protein farnesylation in ras-transformed cells (H-ras-transformed HIH 3T3 cells)
Assay: Gel shift assay (inhibition of ras farnesylation in cells)
Format: cell-based
Conditions: ras-transformed cells, 18-hour incubation
Method: Twenty-four hours after planting 2×10^6 ras-transformed cells per treatment condition, the farnesylation inhibitor is added at varying concentrations. Following an 18-hour incubation period, cells are lysed in phosphate-buffered saline containing 1% Triton X-100, 0.5% sodium deoxycholate, and 0.1% SDS (sodium dodecyl sulfate), pH 7.4 in the presence of several protease inhibitors (PMSF (phenylmethylsulfonylfluoride), antipain, leupeptin, pepstatin A, and aprotinin all at 1 μg/mL). […]
Listed next: entries and their corresponding Gel Shift (μM) M.E.D* (minimal effective dose to observe inhibition of ras farnesylation).
# unit: µM | format: bare number

Look over these answered cases.
CN(C(=O)[C@H](Cc1c[nH]cn1)NC(=O)OCc1ccccc1)[C@@H](Cc1ccc(OCc2ccccc2)cc1)C(=O)NCCc1ccccc1 (relative stereo) [Example 2] ... 0.2
CN(C(=O)[C@H](Cc1c[nH]cn1)NC(=O)OCc1ccccc1)[C@@H](Cc1ccc(OCc2ccccc2)cc1)C(=O)NCC(C)(C)c1ccccc1 [Example 3] ... 0.05

Please turn your attention to the following entry.
// Gel Shift (μM) M.E.D* (minimal effective dose to observe inhibition of ras farnesylation) lookup, key: CN(C(=O)[C@@H](Cc1c[nH]cn1)NC(=O)OCc1ccccc1)[C@@H](Cc1ccc(OCc2ccccc2)cc1)C(=O)NCCOCc1ccccc1 (relative stereo) [Example 1]
1
